The reported numbers originate from paper PMC7566913.

# measurementProtocol: Hydrolytic stability of the APL prodrugs monitored by 31P-NMR
# Assay type: physicochemical
# runConditions: potassium acetate/acetic acid buffer with Triton X-100; pH 4.5; extrapolated from the experimental data; read-out: t1/2 (time needed for 50% hydrolysis) (converted)
What half-life was measured for each of the following?
A number alone suffices; assume h.

**Query** Requested field: half-life. Item: CCCCCCCCCCCCCCCCOP(=O)(OCC[N+](C)(C)C)OC(C)OC(=O)CCCCCCCCCCC.[Cl-] (centres unmarked)
**Result** 17

**Query** Requested field: half-life. Item: CCCCCCCCCCCCCCCCCCOP(=O)(OC1CC[N+](C)(C)CC1)OC(C)OC(=O)CCCCCCCCCCC.[Cl-] (centres unmarked)
**Result** 90
